assay: Plasma pharmacokinetics after single dose (C1D1), LC-MS/MS; format: in vivo, human; conditions: human, plasma, oral, 3 mg, cohort Schedule C, 3.0 mg, n = 10, read-out: Vz/F, GM (%CV)
Measured Endpoint: Vd/F
Just the number plus its unit, please.

Vd/F for `Cc1nnn(C)c1-c1cnc2c3ccc(C(C)(C)O)cc3n([C@H](c3ccccc3)C3CCOCC3)c2c1` is 15.6 L

###

assay: Plasma pharmacokinetics after multiple doses (cycle 2, steady state), LC-MS/MS; format: in vivo, human; conditions: human, plasma, oral, 3 mg, multiple dose, steady state; Schedule A (5 days on, 2 days off), 3.0 mg, n = 7; read-out: Effective T1/2, mean (SD) (converted)
Measured Endpoint: half-life (h)
Express the result in h but write the number alone.

half-life for `Cc1nnn(C)c1-c1cnc2c3ccc(C(C)(C)O)cc3n([C@H](c3ccccc3)C3CCOCC3)c2c1` is 25.7

###

assay: Plasma pharmacokinetics after single dose (C1D1), LC-MS/MS; format: in vivo, human; conditions: human, plasma, oral, 1.25 mg, cohort Schedule A, 1.25 mg, n = 3, read-out: AUC(0–24), GM (%CV)
Measured Endpoint: AUC(0-t) (ng·h/mL)
Express the result in ng·h/mL but write the number alone.

AUC(0-t) for `Cc1nnn(C)c1-c1cnc2c3ccc(C(C)(C)O)cc3n([C@H](c3ccccc3)C3CCOCC3)c2c1` is 2310

###

assay: Plasma pharmacokinetics after multiple doses (cycle 2, steady state), LC-MS/MS; type: in vivo, human; conditions: human, plasma, oral, 0.75 mg, multiple dose, steady state; Schedule A (5 days on, 2 days off), 0.75 mg, n = 4; read-out: Tmax, median (range)
Measured Endpoint: Tmax
Just the number plus its unit, please.

Tmax for `Cc1nnn(C)c1-c1cnc2c3ccc(C(C)(C)O)cc3n([C@H](c3ccccc3)C3CCOCC3)c2c1` is 3.14 h

###

experiment: Plasma pharmacokinetics after single dose (C1D1), LC-MS/MS; assay type: in vivo, human; settings: human, plasma, oral, 1.25 mg, cohort Schedule A, 1.25 mg, n = 3, read-out: AUC(0–T), GM (%CV)
Measured Endpoint: AUC(0-t)

AUC(0-t) for `Cc1nnn(C)c1-c1cnc2c3ccc(C(C)(C)O)cc3n([C@H](c3ccccc3)C3CCOCC3)c2c1` is 6370 ng·h/mL

###

assay: Plasma pharmacokinetics after single dose (C1D1), LC-MS/MS; type: in vivo, human; conditions: human, plasma, oral, 4.5 mg, cohort Schedule A, 4.5 mg, n = 10, read-out: AUC(0–24), GM (%CV)
Measured Endpoint: AUC(0-t) (ng·h/mL)
Express the result in ng·h/mL but write the number alone.

AUC(0-t) for `Cc1nnn(C)c1-c1cnc2c3ccc(C(C)(C)O)cc3n([C@H](c3ccccc3)C3CCOCC3)c2c1` is 6790

###

assay: Plasma pharmacokinetics after single dose (C1D1), LC-MS/MS; assay type: in vivo, human; conditions: human, plasma, oral, 2 mg, cohort Schedule C, 2.0 mg, n = 6, read-out: AUC(0–24), GM (%CV)
Measured Endpoint: AUC(0-t) (ng·h/mL)
Express the result in ng·h/mL but write the number alone.

AUC(0-t) for Cc1nnn(C)c1-c1cnc2c3ccc(C(C)(C)O)cc3n([C@H](c3ccccc3)C3CCOCC3)c2c1 [BMS-986158] is 3660
